From: patent US9309275B2

- Tested on: HCV genotype 1b replicon
- Assay comment: HCV replicon assay (Zluc luciferase reporter)
- Type: cell-based
- Condition details: read-out: HCV Replicon EC50, Huh-7-derived Zluc cells, 72 hours of incubation

- Molecule: "CC(C)OC(=O)[C@H](C)NP(=O)(OC[C@@H]1C[C@@](C)(F)[C@H](n2cnc3c(=O)[nH]c(N)nc32)O1)Oc1ccccc1 (single isomer, unassigned) [1b Diastereomer 1]"
  EC50: "1 to 10 µM"
- Molecule: "CC(C)OC(=O)[C@H](C)NP(=O)(OC[C@@H]1C[C@@](C)(F)[C@H](n2cnc3c(=O)[nH]c(N)nc32)O1)Oc1ccccc1 (single isomer, unassigned) [lb Diastereomer 2]"
  EC50: "> 10 µM"
